// provenance: patent US20230151034A1

target: HuNV GGII.4 Norovirus protease (Norovirus GII.4 (human norovirus genogroup II genotype 4), UniProt P54634); experiment: Norovirus protease FRET assay (HuNV GGII.4); format: biochemical; settings: Table C; FRET protease assay; read-out: HuNV GGII.4 IC50
Sequence (P54634 1009-1189): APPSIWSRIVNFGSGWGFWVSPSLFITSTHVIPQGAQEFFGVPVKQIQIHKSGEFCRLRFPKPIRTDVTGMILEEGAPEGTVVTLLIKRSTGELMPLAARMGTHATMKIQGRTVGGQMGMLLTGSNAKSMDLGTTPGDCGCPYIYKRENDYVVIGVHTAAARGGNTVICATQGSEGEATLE
pIC50: −log10 of the molar value.
Assign class by pIC50: not lower than 4 means t; lower than 4 means f.

molecule="CCOC(=O)NCCN(C)C(=O)CC[C@@H](C=O)NC(=O)[C@H](CC1CCCCC1)NC(=O)OCc1cccc(Cl)c1 (stereo in doubt)" class_assignment=t
molecule=CCCCCN(C)C(=O)CC[C@H](NC(=O)[C@H](CC1CCCCC1)NC(=O)OCc1cccc(Cl)c1)C(=O)N(C)OC class_assignment=f
molecule="CCOCCN(C)C(=O)CC[C@H](NC(=O)C(CC1CCCCC1)NC(=O)OCc1cccc(Cl)c1)C(O)P(=O)(OCC)OCC (stereo in doubt)" class_assignment=f
molecule=CN(CCc1ccccc1Cl)C(=O)CC[C@@H](C=O)NC(=O)[C@H](CC1CCCCC1)NC(=O)OCc1cccc(Cl)c1 class_assignment=f
molecule="O=C[C@H](CCC(=O)N1CCc2ccccc2CC1)NC(=O)[C@H](CC1CCCCC1)NC(=O)OCc1cccc(Cl)c1 (stereo in doubt)" class_assignment=t
molecule="CCOP(=O)(OCC)C(O)[C@H](CCC(=O)N(C)Cc1ccccc1)NC(=O)[C@H](CC1CCCCC1)NC(=O)OCc1cccc(Cl)c1 (stereo partly drawn)" class_assignment=f
molecule="CN(CCc1ccc(Cl)cc1)C(=O)CC[C@@H](C=O)NC(=O)[C@H](CC1CCCCC1)NC(=O)OCc1cccc(Cl)c1 (stereo in doubt)" class_assignment=t
molecule="CCOP(=O)(OCC)C(O)[C@H](CCC(=O)N(C)CCc1ccc(Cl)cc1)NC(=O)C(CC1CCCCC1)NC(=O)OCc1cccc(Cl)c1 (stereo in doubt)" class_assignment=f

* * *

Documented IC50 across a set of molecules
target: HuNV GGII.4 Norovirus protease (Norovirus GII.4 (human norovirus genogroup II genotype 4), UniProt P54634); assay: Norovirus protease FRET assay (HuNV GGII.4); format: biochemical; settings: Table C; FRET protease assay; read-out: HuNV GGII.4 IC50
ASSAY_READOUT: IC50 (µM)

molecule=CN(CCc1cccc(Cl)c1)C(=O)CC[C@@H](CO)NC(=O)[C@H](CC1CCCCC1)NC(=O)OCc1cccc(Cl)c1 observed=123
molecule=O=C[C@H](CCC(=O)N1CCCCc2ccccc21)NC(=O)[C@H](CC1CCCCC1)NC(=O)OCc1cccc(Cl)c1 observed=200
molecule="CC(CN(C)C(=O)CC[C@@H](C=O)NC(=O)[C@H](CC1CCCCC1)NC(=O)OCc1cccc(Cl)c1)c1ccccc1 (stereo in doubt)" observed=76.7
molecule="CN(CCc1ccccc1)C(=O)CC[C@@H](C=O)NC(=O)[C@H](CC1CCCCC1)NC(=O)OCc1cccc(Cl)c1 (stereo in doubt)" observed=26.9
molecule=O=C[C@H](CCC(=O)N1CCOc2ccccc2C1)NC(=O)[C@H](CC1CCCCC1)NC(=O)OCc1cccc(Cl)c1 observed=2.6
molecule="O=C[C@H](CCC(=O)N1CCCC(c2ccccc2)C1)NC(=O)[C@H](CC1CCCCC1)NC(=O)OCc1cccc(Cl)c1 (stereo in doubt)" observed=82.5
molecule="O=C[C@H](CCC(=O)N1CCOC(c2ccccc2)C1)NC(=O)[C@H](CC1CCCCC1)NC(=O)OCc1cccc(Cl)c1 (stereo in doubt)" observed=18.8
